These entries and their values trace back to ChEMBL document CHEMBL1201862.

System: MOLT-4
Assay: NCI tumour cell line growth inhibition, 48 h
Activity calls are given as the source filed them. No stated cut-off is given here; in the data, active = GI50 up to about 1.1 µM and inactive = higher.
Reply using exactly one outcome from 1 for active, 0 for inactive

What outcome does the record of this test show for `O=c1[nH]nc(-c2ccccc2)n1/N=C/c1ccncc1` ?
0

Moving on to the next molecule: `Cc1cccc2c1CC1(Cc3c(C)cccc3C1=O)C2=O`
0

Moving on to the next molecule: `CCOC(=O)c1[nH]c(Br)c(-c2ccc(OC)c(OC)c2)c1Br`
1

Moving on to the next molecule: CCCCOC(=O)C1C(c2ccc(Cl)cc2)NC(c2ccc(Cl)cc2)C(C(=O)OCCCC)S1(=O)=O (stereo not drawn)
0

Moving on to the next molecule: `Nc1ncc(Sc2ccccc2C(=O)O)s1`
0

Moving on to the next molecule: `O=C(N/N=C/c1ccccc1)c1c(F)c(F)c(F)c(F)c1F`
0

Moving on to the next molecule: `CCOC(=O)c1c(C)n(-c2ccc(C)cc2)c(=O)c2ccccc2c(=O)c2c(=O)ccc(=O)c1=2`
0

Moving on to the next molecule: `CN(C)CCCNc1c2c(=O)n(C)c(=O)nc-2n(C)c2ccccc12`
0

Moving on to the next molecule: `CNC(=O)Oc1ccc(C(=S)Nc2ccc(Br)cc2)cc1`
0

Moving on to the next molecule: CC1=CC(=O)C2=C(C)CCC3C(C)C(=O)OC3C12 (stereo not drawn)
0

Moving on to the next molecule: `CC(=O)NC1=C(N)C(=O)c2ccccc2C1=O`
0

Moving on to the next molecule: N=C(N)NCCCCCCC(=O)NC(O)C(=O)NCCCCNCCCN (stereo not drawn)
0

Moving on to the next molecule: `N#CCCN(CCC#N)c1ccc(/C=C2\N=C(c3ccccc3)N(NC(=O)c3ccncc3)C2=O)cc1`
0

Moving on to the next molecule: `COc1ccc(C(=O)/C=C/c2ccc(OCC(=O)N3CCN(c4ccccc4)CC3)cc2)cc1`
0

Moving on to the next molecule: `C=CCNC(=S)NNC(=O)c1c(C)nc2sccn12`
0

Moving on to the next molecule: `C[C@@](Br)(C(=O)O)[C@H](Br)C(=O)O`
0

Moving on to the next molecule: NC(=O)N/N=C(/c1nc2ccc([N+](=O)[O-])cc2nc1O)C(O)c1ccco1 (stereo not drawn)
0

Moving on to the next molecule: `O=C1C(Cl)=C(NCCOCCO)C(=O)c2c(O)ccc(O)c21`
0

Moving on to the next molecule: `O=C(O)C1=Cc2cccc3cccc(c23)C1=O`
0

Moving on to the next molecule: CCCCN(CCCC)C(=O)C(=O)C(C)C(=O)CC (stereo not drawn)
0

Moving on to the next molecule: `COc1cc2oc(-c3ccccc3)cc(=O)c2c(O)c1C`
0

Moving on to the next molecule: `c1ccc2c(c1)CCc1cc3cc4c(nc3nc1-2)-c1ccccc1CC4`
0

Moving on to the next molecule: `CCn1ncc2c(=O)n3ncn(-c4ccc(Br)cc4)c3nc21`
0

Moving on to the next molecule: `COc1ccc(/N=C(\C)c2ccncc2)cc1`
0

Moving on to the next molecule: `COc1cc2c(cc1OCCCCCN1C(=O)c3cccc4cccc(c34)C1=O)N=C[C@@H]1CCCN1C2=O`
1

Moving on to the next molecule: C=C(C)[C@@H]1CC[C@]2(C)CC[C@]3(C)[C@H](CC[C@@H]4[C@@]5(C)CC[C@H](O)C(C)(C)[C@@H]5CC[C@]43C)[C@@H]12 [LUPEOL]
0

Moving on to the next molecule: `CCOC(=O)c1sc2c(c1OC(=O)c1ccccc1)c(=O)n(-c1ccccc1)c(=S)n2-c1ccccc1`
0

Moving on to the next molecule: `Cc1nc2[nH]ccn2c(=O)c1CCCl`
0

Moving on to the next molecule: `COC(=NC(C)C)NC(C)C`
0

Moving on to the next molecule: `COC(=O)C(Cl)=C1CC1`
0

Moving on to the next molecule: `CCOC(=O)/C=C\c1c(Cl)n(-c2ccccc2)c(=O)n(-c2ccccc2)c1=O`
0

Moving on to the next molecule: `N#CCc1c(F)c(F)c(F)c(F)c1F`
0

Moving on to the next molecule: COC(=O)c1ccccc1C1=C([N+](=O)[O-])C(c2cccc(Br)c2)C(C#N)=C(N)O1 (stereo not drawn)
0

Moving on to the next molecule: `O=C1c2cccc3cc4ccccc4c(c23)C(=O)N1CCCNCCNCCCN1C(=O)c2cccc3cc4ccccc4c(c23)C1=O`
1

Moving on to the next molecule: `Cc1ccc(OCCn2cc(Nc3ccccc3)c(=O)n(CCOc3ccc(C)cc3)c2=O)cc1`
0

Moving on to the next molecule: O=C(CCN1CCN(c2ccccc2)CC1)N1CCc2c([nH]c3ccccc23)C1c1cccnc1 (stereo not drawn)
0

Moving on to the next molecule: N#CC(c1cc(Cl)ncn1)c1nc2cc(C(F)(F)F)ccc2s1 (stereo not drawn)
0

Moving on to the next molecule: O=C(c1nc2ccc(Cl)cc2[nH]c1=O)C(O)c1cccc([N+](=O)[O-])c1 (stereo not drawn)
0

Moving on to the next molecule: `CCOC(=O)/C(=C/c1cccc(C#N)c1)N(CC)CC`
0

Moving on to the next molecule: `Cc1ccc(Cl)c2c(=O)cc(-c3ccccc3)[nH]c12`
0

Moving on to the next molecule: CC(C)(C)OC(=O)NC(CCCCNC(=O)OCc1ccccc1)C(=O)NC(CCCCNC(=O)OCc1ccccc1)C(=O)ON1C(=O)CCC1=O (stereo not drawn)
0

Moving on to the next molecule: `CN1NC2(CCCCC2)ON=C1c1ccccc1`
0

Moving on to the next molecule: COc1ccc(C2SC(=N)Nc3c2c(C)nn3C(=O)Cc2ccccc2)cc1 (stereo not drawn)
0
